# target_of_assay: UniProt P0DTD1
# assay_protocol: biochemical
# Type: biochemical
# Parameters: unit not given here
# study_conditions: sheet LOPAC_screen_w_protease; LOPAC1280 primary screen at 5 µM, with protease; replicate 1
Define the label as YES when Replicate_1 is strictly less than 0.6 and as NO in all remaining cases.

>>> df
                                   compound  answer_label
0  CCS(=O)(=O)Nc1cccc(C(=C2CCCCC2)c2c[nH]cn2)c1            NO

Q) State whether 0.6 exceeds Replicate_1 recorded for N=C(N)NC(=N)Nc1ccccc1 [1-Phenylbiguanide] .
A) YES

Q) State whether 0.6 exceeds Replicate_1 recorded for CC(C)[C@H]1CN[C@H](C(=O)O)[C@H]1CC(=O)O [Dihydrokainic acid] .
A) NO

Q) State whether 0.6 exceeds Replicate_1 recorded for C[N+](C)(CCCCCC[N+](C)(C)CCCN1C(=O)c2cccc3cccc(c23)C1=O)CCCN1C(=O)c2cccc3cccc(c23)C1=O.[Br-].[Br-] .
A) YES

Q) State whether 0.6 exceeds Replicate_1 recorded for CCCCCCCCCC[Si](C)(C)CCC(=O)NC(Cc1ccc(C)cc1)c1ccccc1 (centres unmarked) .
A) NO

Q) State whether 0.6 exceeds Replicate_1 recorded for CC1=NN=C(c2ccc(N)cc2)c2cc3c(cc2C1)OCO3.Cl [GYKI 52466 hydrochloride] .
A) NO

Q) State whether 0.6 exceeds Replicate_1 recorded for Cl.NCCc1ccc(O)cc1 [4-Hydroxyphenethylamine hydrochloride] .
A) YES

Q) State whether 0.6 exceeds Replicate_1 recorded for COc1cc(C(O)CO)ccc1OS(=O)(=O)[O-].[K+] (centres unmarked) [MHPG sulfate potassium] .
A) NO

----------
# target_of_assay: UniProt:P0DTD1
# assay_protocol: biochemical
# Format: biochemical
# study_conditions: 4 h, sheet LOPAC_screen_w_protease; primary screen with protease, compound at 5 µM; replicate 2; read-out: Replicate_2
Where a name gives a salt, the structure may show the parent alone.
What inhibition at 5 µM was measured for each of the following?

Known results for compounds:
compound	reported_value
CCCC1O[C@@H]2C[C@H]3[C@@H]4CCC5=CC(=O)C=C[C@]5(C)[C@H]4[C@@H](O)C[C@]3(C)[C@]2(C(=O)CO)O1 (stereo partly drawn) [Budesonide]	4.21%
O=c1[nH]c2ccccc2n1C1CCN(CCCC(c2ccc(F)cc2)c2ccc(F)cc2)CC1 [Pimozide]	2.29%
O=[N+]([O-])c1cccc2cn[nH]c12 [7-Nitroindazole]	3.89%
COC(=O)[C@H]1[C@H]2C[C@H]3c4[nH]c5ccccc5c4CCN3C[C@H]2CC[C@@H]1O [Rauwolscine hydrochloride]	2.65%
CCn1ccnc1CC1COc2ccccc2O1 (stereo not drawn) [Imiloxan hydrochloride]	2.09%

Provide inhibition at 5 µM for all items below, preserving their order.
1. Fc1ccc(C(c2ccc(F)cc2)N2CCN(C/C=C/c3ccccc3)CC2)cc1 [Flunarizine dihydrochloride]
2. O=C(O)c1cc(O)cc(C(=O)O)n1 [Chelidamic acid]
3. CCOC(=O)C(C)(C)Oc1ccc(Cl)cc1 [Clofibrate]
4. CC(=O)CCCCn1c(=O)c2c(ncn2C)n(C)c1=O [Pentoxifylline]
5. N=C(N)NC(=O)Cc1c(Cl)cccc1Cl [Guanfacine hydrochloride]
6. CC1=C(C(=O)O)N2C(=O)[C@@H](NC(=O)[C@H](N)C3=CCC=CC3)[C@H]2SC1 [Cephradine]
7. COC(=O)C1=C(C)NC(C)=C(C(=O)OCCN(C)Cc2ccccc2)C1c1cccc([N+](=O)[O-])c1 (stereo not drawn) [Nicardipine hydrochloride]
8. CCOC(=O)[N-]c1cn(N2CCOCC2)n[o+]1 [Molsidomine]

A)
2.29%
3.58%
3.93%
3.18%
1.51%
3.42%
3.42%
4.23%

Where these numbers come from: paper PMC7587356
